method_notes: Caspase-3/7 induction in HepG2 cells by small molecules, qHTS cell viability counter screen (AID 1346981); note: nearly all actives have a fitted effect of over 30% in size
measurement_conditions: CellTiter-Fluor fluorescence, 17 h; series mostly up to 92.4 µM
Inconclusive results are not listed. Calls of active or inactive are those of the source. Calls come from the whole dose curve; as a rule, active = well fitted cell-killing curve with a large enough effect in the repeat runs; inconclusive = weak or mixed curves, or effect the other way; inactive = flat fitted curve, though single readings scatter.
Classes used: Y = active, N = inactive

INSERT INTO assay_data (compound, class_name) VALUES
  ('CCCCCCCCCCc1ccccc1', 'N'),
  ('O=C(O)Cc1ccc(OCCNC[C@H](O)c2ccccc2)cc1', 'N'),
  ('Cc1nc(Nc2ncc(C(=O)Nc3c(C)cccc3Cl)s2)cc(N2CCN(CCO)CC2)n1', 'Y'),
  ('CSc1c(Cl)c(Cl)c(Cl)c(Cl)c1Cl', 'N'),
  ('CC(C)(C)CC(C)(C)c1ccccc1O', 'Y'),
  ('CCCCCCS', 'N'),
  ('CO[Si](CCC1CCC2OC2C1)(OC)OC (stereo not drawn)', 'N'),
  ('O=C(NO)c1ccccc1', 'N'),
  ('CN1[C@@H]2CC[C@H]1CC(OC(=O)C(CO)c1ccccc1)C2 (stereo partly drawn)', 'N'),
  ('Cc1c(C(=O)O)cccc1[N+](=O)[O-]', 'N'),
  ('Cc1c(-c2ccc(O)cc2)n(Cc2ccc(OCCN3CCCCCC3)cc2)c2ccc(O)cc12', 'Y'),
  ('CCOC(=O)CC(C)O (stereo not drawn)', 'N'),
  ('O=S(=O)(O)CCCN1CCOCC1', 'N');
